Values compiled from patent US20260103471A1.

What EC50 was measured for each of the following?
System: HSV-1
Assay: HSV-1 Antiviral Assay (Vero cells, cell viability)
Format: cell-based
Conditions: Human alphaherpesvirus 1, 96 h; Vero cells, 80 TCID50 HSV-1, 4 days, cell viability; read-out: HSV-1 EC50
Procedure: Vero cells were cultured in Dulbecco's Modified Eagle Medium (DMVEM) supplemented with […] and 100 units/mL penicillin and streptomycin. The cells were passaged 2-3 times per week to maintain sub-confluent densities. Vero cells were seeded into 96-well plates at a density of 2.5×10^3 cells per well and allowed to attach overnight. […] Following a 5-minute incubation, cell viability was quantified by measuring luminance using a Tecan Infinite M1000 Pro plate reader.

In: Could you tell me which EC50 is on file for Cc1nc(N2CCCN(c3ccc(-c4cccc(F)c4F)cc3)C2=O)sc1S(N)(=O)=O [Compound 6] ?
Out: < 100 nM

In: Next molecule: Cc1nc(N2CC3(CC3)CN(c3ccc(-c4cc(F)ccc4F)cc3)C2=O)sc1S(N)(=O)=O [Compound 110]
Out: < 100 nM

In: Next molecule: Cc1nc(N2CC3(CC3)CN(c3ccc(-c4cc(F)ccc4F)cc3)C2=O)sc1[S@@](C)(=N)=O (single isomer, unassigned) [Compound 157]
Out: 100 to 1000 nM

---

System: HSV-1
Assay: HSV-1 Antiviral Assay (Vero cells, cell viability)
Assay type: cell-based
Details: Human alphaherpesvirus 1, 96 h; Vero cells, 80 TCID50 HSV-1, 4 days, cell viability; read-out: HSV-1 EC50
quantity.kind: EC50

In: Could you tell me which EC50 is on file for Cc1nc(N2CC3(CC3)CN(c3ccc(-c4cc(F)ccc4F)cc3)C2=O)sc1S(C)(=N)=O (stereo not shown) ?
Out: < 100 nM

In: Next compound: CS(=O)(=O)c1cnc(N2CCCN(c3ccc(-c4cc(F)ccc4F)cc3)C2=O)s1
Out: 100 to 1000 nM

In: Next compound: Cc1cc2cccc(-c3ccc(N4CCCN(c5nc(C)c(S(N)(=O)=O)s5)C4=O)cc3)c2s1
Out: < 100 nM

In: Next compound: Cc1nc(N2CCCN(Cc3cccc(-c4cc(F)ccc4F)c3)C2=O)sc1S(N)(=O)=O
Out: < 100 nM

In: Next compound: Cc1nc(N2CCCN(c3ccc(-c4ccc5ncn(C)c5c4)cc3)C2=O)sc1S(N)(=O)=O
Out: 1000 to 5000 nM

In: Next compound: Cc1nc2cccc(-c3ccc(N4CCCN(c5nc(C)c(S(N)(=O)=O)s5)C4=O)cc3)c2s1
Out: < 100 nM

In: Next compound: Cc1nc(N2CCCN(c3ccc(-c4cc(F)ccc4C(F)F)cc3)C2=O)sc1S(N)(=O)=O
Out: < 100 nM

---

System: HSV-1
Assay: HSV-1 Antiviral Assay (Vero cells, cell viability)
Type: cell-based
Settings: Human alphaherpesvirus 1, 96 h; Vero cells, 80 TCID50 HSV-1, 4 days, cell viability; read-out: HSV-1 EC50
What EC50 was measured for each of the following?

In: Could you tell me which EC50 is on file for Cc1nc(N2CCCN(c3ccc(-c4cccc5ccncc45)cc3)C2=O)sc1S(N)(=O)=O [Compound 83] ?
Out: < 100 nM

In: Next compound: Cc1nc(N2CCCN(c3ccc(-c4ncco4)cc3)C2=O)sc1S(N)(=O)=O [Compound 41]
Out: 100 to 1000 nM

In: Next compound: Cc1nc(N2CCCN(c3ccc(-c4cc(F)ccc4F)cc3)C2=O)sc1S(C)(=O)=O [Compound 161]
Out: < 100 nM

In: Next compound: Cc1nc(N2C[C@H](C#N)CN(c3ccc(-c4cc(F)ccc4F)cc3)C2=O)sc1S(N)(=O)=O (single isomer, unassigned) [Compound 361]
Out: < 100 nM

In: Next compound: Cc1nc(N2CCCN(c3cnn(-c4ccccc4F)c3)C2=O)sc1S(N)(=O)=O [Compound 100]
Out: 1000 to 5000 nM

---

What pEC50 was measured for each of the following?
Test system: HSV-1
Assay: HSV-1 Antiviral Assay (Vero cells, cell viability)
Type: cell-based
Conditions: Human alphaherpesvirus 1, 96 h; Vero cells, 80 TCID50 HSV-1, 4 days, cell viability; read-out: HSV-1 EC50
pEC50: −log10 of the molar value.

In: # returns recorded pEC50 (system: HSV-1) for Cc1nc(N2CCCN(c3ccc(-c4ccnn4C)cc3)C2=O)sc1S(N)(=O)=O
Out: 5.30 to 6.00

In: Next compound: Cc1nc(N2CC3(COC3)CN(c3ccc(-c4cc(F)cc(-c5cnn(C(F)F)c5)c4F)cc3)C2=O)sc1S(C)(=O)=O
Out: > 7.00

In: Next compound: Cc1nc(N2CCCN(c3ccc(-c4cccc5c4sc(=O)n5C)cc3)C2=O)sc1S(N)(=O)=O
Out: > 7.00

In: Next compound: CC(=O)NS(=O)(=O)c1sc(N2CCCN(c3ccc(-c4cc(F)ccc4F)cc3)C2=O)nc1C
Out: 5.30 to 6.00

In: Next compound: Cc1nc(N2CCCN(c3ccc(-c4cc(F)ccc4F)cc3)C2=O)sc1S(=O)(=O)NC1CC1
Out: > 7.00

In: Next compound: Cc1nc(N2CCCN(c3ccc(-c4cc(F)cc(-c5cncs5)c4F)cc3)C2=O)sc1S(N)(=O)=O
Out: > 7.00

In: Next compound: Cc1nc(N2CCCN(c3ccc(-c4cccc(N)n4)cc3)C2=O)sc1S(N)(=O)=O
Out: 6.00 to 7.00

In: Next compound: Cc1nc(N2CCCN(c3ccc(-c4cccc5c4CC(=O)N5C)cc3)C2=O)sc1S(N)(=O)=O
Out: 6.00 to 7.00

In: Next compound: CNS(=O)(=O)c1sc(N2CCCN(Cc3cccc(-c4cc(F)ccc4F)c3)C2=O)nc1C
Out: > 7.00

In: Next compound: CNS(=O)(=O)c1sc(N2CCCN(c3ccc(-c4ccccc4F)c(F)c3)C2=O)nc1C
Out: 6.00 to 7.00

In: Next compound: CNS(=O)(=O)c1sc(N2CCCN(c3ccc(-c4ccccc4F)cc3)C2=O)nc1C
Out: > 7.00

In: Next compound: Cc1nc(N2CCCN(c3ccc(-c4cc(F)cc(-c5cnn(C)c5)c4F)cc3)C2=O)sc1S(N)(=O)=O
Out: > 7.00
